Test system: Lefty1
procedureText: Lefty1 binders on small-molecule microarrays, primary screen, biochemical, small-molecule microarray, 635/667 nm fluorescence (AID 1139)
conditionDescription: small-molecule microarray binding, fluorescence 635/667; higher = more signal
Give composite z-score for every item shown.

Lookup: Reported composite z-score, compound `CN(C)C(=O)[C@@]1(CCS(=O)(=O)c2ccccc2)N=C(c2ccc(OCCCO)cc2)O[C@H]1c1ccccc1N=[N+]=[N-]` : ____
Found: 0.267

Lookup: Do the same for `COCC1=C([C@H](O)CCc2ccccc2)[C@H](CO)n2c(=O)n(-c3ccccc3)c(=O)n2C1` please
Found: -0.0597

Lookup: Do the same for `COC(=O)[C@@]1(CCC(=O)OC(C)(C)C)N=C(c2ccc(OCCCO)cc2)O[C@H]1c1ccccc1CN=[N+]=[N-]` please
Found: -0.756

Lookup: Do the same for `COc1ccc([Si](C)(C)[C@H]2[C@H](CCO)O[C@@]3(C(=O)N(Cc4ccccc4)c4ccc(N(C=O)c5ccccc5)cc43)[C@@H]2C)cc1` please
Found: 1.01

Lookup: Do the same for `COC(=O)c1c(CC[C@@H](CO)NC(=O)N[C@@H](Cc2ccccc2)Cn2cc(-c3cncn3C)nn2)oc(C(C)=O)c1C(=O)OC` please
Found: 0.847

Lookup: Do the same for `COCCOC(=O)N1C(=O)[C@@]2(c3cc(C#Cc4ccc(OC)cc4)ccc31)[C@H](C(=O)Nc1nc3ccccc3s1)[C@H]1C(=O)O[C@H](c3ccccc3)[C@H](c3ccccc3)N1[C@@H]2c1ccccc1OCCO` please
Found: 0.973

Lookup: Do the same for `COCCCNC(=O)[C@@H]1c2ccccc2C(=O)N(C2CCCCC2)[C@H]1c1ccc(CO)cc1` please
Found: -1.19

Lookup: Do the same for `COC(=O)[C@@]1(Cc2ccccc2)[C@H]2c3cc(C(=O)N4CCCC4)n(Cc4ccc(C(F)(F)F)nc4)c3C[C@H]2CN1C(=O)c1ccccc1` please
Found: 0.333

Lookup: Do the same for `CC(C)CNC(=O)[C@@H]1c2ccccc2C(=O)N(CC23CC4CC(CC(C4)C2)C3)[C@H]1c1ccc(CO)cc1` please
Found: 0.366

Lookup: Do the same for `CN(C)CCCC[C@@H]1NC(=O)[C@@H]2C[C@H](C(=O)NCCCCCCNC(=O)CS)[C@H](c3cccc(OCCO)c3)N2C1=O` please
Found: 0.273

Lookup: Do the same for COc1ccc(NN2C(C(O)c3cc(C(F)(F)F)cc(C(F)(F)F)c3)C=CC3C(=O)N(C4CCCCC4)C(=O)C32)cc1 (stereo not given) please
Found: -0.364

Lookup: Do the same for `C/C=C/CN(C(=O)C#Cc1ccccc1)[C@H](CO[Si](C)(C)C(C)(C)C)c1ccccc1` please
Found: -0.977

Lookup: Do the same for CCCCC(O)C1C=CC2C(=O)NC(=O)C2N1Nc1ccccn1 (stereo not given) please
Found: -0.0094

Lookup: Do the same for `CC(C)C(=C=CC[C@@H](O)c1cccc(OCCO)c1)CCO` please
Found: 0.524

Lookup: Do the same for CC1CC/C=C\[C@H]2OC34C=CCN(c5ccc(Cl)cc5)C(=O)[C@H]3N(CCCO)C(=O)[C@]4(C)C2C(=O)O1 (stereo not given in full) please
Found: -0.157

----------
System: XIP peptide (Xip251-270) binding
procedureText: small-molecule binders of XIP peptide, primary screen, biochemical, small-molecule microarray, fluorescence 635/667 nm, 0.1 µg/mL protein (AID 1182)
conditionDescription: fluorescent protein binding, 635 nm, higher = more signal, called active from +8 up or from −8 down
Rule: composite z-score under 0.7 gives N, otherwise Y.

Lookup: Identify whether the reported composite z-score of the following molecule is 0.7 or greater: O=C1OCCC/C=C\[C@H]2OC34C=CCN(Cc5ccccc5)C(=O)[C@H]3N(CCCCCO)C(=O)[C@@H]4C12 (stereo not given in full)
Found: N

Lookup: Do the same for `CN(C)C(=O)[C@]1(Cc2ccccc2)N=C(c2ccc(OCCCO)cc2)O[C@@H]1c1ccccc1` please
Found: Y

Lookup: Do the same for COC(=O)C1=CC(CCCO)=CC(C2CC2)N(Cc2cccc(OC(F)(F)F)c2)C=C1C(=O)OC (stereo not given) please
Found: Y

Lookup: Do the same for `C=CCNC(=O)[C@H]1[C@@H]2C(=O)O[C@@H](c3ccccc3)[C@@H](c3ccccc3)N2[C@@H](c2ccc(O)cc2)[C@]12C(=O)Nc1ccc(C#CC3=CCCCC3)cc12` please
Found: N

Lookup: Do the same for `COCCOC(=O)N1C(=O)[C@@]2(c3cc(C#CCCO)ccc31)[C@H](c1ccc(O)cc1)N1[C@H](c3ccccc3)[C@H](c3ccccc3)OC(=O)[C@H]1[C@@H]2C(=O)N1CCc2cc(OC)c(OC)cc2C1` please
Found: N

Lookup: Do the same for O=C1C2C=CC(C(O)C(c3ccccc3)c3ccccc3)N(Nc3ccccc3)C2C(=O)N1c1ccccc1 (stereo not given) please
Found: Y

Lookup: Do the same for CCCCCCCCCCC(O)C1C=CC2C(=O)N(C)C(=O)C2N1N1CCCCC1 (stereo not given) please
Found: N

Lookup: Do the same for `CC(C)CNC(=O)[C@@H]1c2ccccc2C(=O)N(CC23CC4CC(CC(C4)C2)C3)[C@H]1c1ccc(CO)cc1` please
Found: N

Lookup: Do the same for `COC(=O)c1c(CC[C@@H](CO)NC(=O)N[C@@H](Cc2ccccc2)Cn2cc(-c3cncn3C)nn2)oc(C(C)=O)c1C(=O)OC` please
Found: N

Lookup: Do the same for CC(=O)n1cc(C(O)C2C=CC3C(=O)N(c4ccccc4)C(=O)C3N2Nc2ccccc2F)c2ccccc21 (stereo not given) please
Found: N

Lookup: Do the same for CC(C)(C)N1CC=CC23O[C@@H]4/C=C\CCCOC(=O)C4[C@H]2C(=O)N(CCCCCCO)[C@@H]3C1=O (stereo not given in full) please
Found: Y

Lookup: Do the same for `C=C(C(=O)CC[C@@H](OC(C)=O)c1cccc(OCCO)c1)C(C)C` please
Found: Y

Lookup: Do the same for C=CCC(OC(C)=O)[C@@H]1[C@@H](N(Cc2cc3ccccc3o2)C(=O)c2ccc(-c3ccccc3)cc2)c2cc(OCCCO)ccc2N1C(=O)c1ccc2ccccc2n1 (stereo not given in full) please
Found: N

Lookup: Do the same for `COCCOC(=O)N1C(=O)[C@@]2(c3cc(C#CCCO)ccc31)[C@H](C(=O)N1CCN(c3ncccn3)CC1)[C@H]1C(=O)O[C@H](c3ccccc3)[C@H](c3ccccc3)N1[C@@H]2c1ccc(O)cc1` please
Found: Y

Lookup: Do the same for `O=C1N(Cc2ccccc2)c2ccccc2[C@H]2OC(c3ccc(OCCCO)cc3)=N[C@@]12Cc1ccccc1` please
Found: N

Lookup: Do the same for `Cc1ccc(F)cc1S(=O)(=O)N[C@@H]1CCN(Cc2ccc3c(c2)OCO3)C1` please
Found: Y

Lookup: Do the same for CC1CC/C=C\[C@H]2OC34C=CCN(c5ccc(Cl)cc5)C(=O)[C@H]3N(CCCO)C(=O)[C@]4(C)C2C(=O)O1 (stereo not given in full) please
Found: N

Lookup: Do the same for `CCOC(=O)C[C@H]1[C@H](OC(=O)Cc2ccc3c(c2)OCO3)[C@@H](NC(=O)c2ccccc2)c2cc(OCCCO)ccc2N1C(=O)Cc1ccc(OC)cc1` please
Found: N

Lookup: Do the same for COc1cc2c(cc1O)C(c1ccc(CN3CCCC3)cc1)N(Cc1ccc([N+](=O)[O-])o1)CC2 (stereo not given) please
Found: N

Lookup: Do the same for `O=C1c2ccccc2[C@](Cc2ccccc2I)(C(=O)O)[C@H](c2ccc(CO)cc2)N1Cc1ccccc1` please
Found: Y

Lookup: Do the same for `CO[C@H]1O[C@H](CO)[C@@H](OC(=O)Nc2ccccc2)[C@@H]2OC(=O)[C@H](Cc3ccccc3)C/C=C/C[C@@H](Cc3ccccc3)C(=O)O[C@@H]12` please
Found: Y

Lookup: Do the same for `[N-]=[N+]=NCc1ccccc1C[C@]1(C(=O)N2CCCCC2)N=C(c2ccc(OCCCO)cc2)O[C@H]1c1ccccc1` please
Found: N

Lookup: Do the same for CN1C=C(C(=O)OCCS(C)(=O)=O)C(C(=O)OCCS(C)(=O)=O)=CC(CCCO)=CC1c1ccc(CN2CCCC2)cc1 (stereo not given) please
Found: N

Lookup: Do the same for `C=C(/C(=C/C[C@@H](OC(C)=O)c1ccccc1OCCO)c1cc(C(=O)OC)ccc1OC)C(C)C` please
Found: Y

Lookup: Do the same for O=C1NC(=O)C2C1C=CC(C(O)c1cccc(O)c1)N2Nc1ccc(Cl)cc1Cl (stereo not given) please
Found: N

Lookup: Do the same for `C[N+](C)(C)CCCCCCNC(=O)[C@@H]1C[C@@H]2C(=O)N[C@@H](Cc3ccccc3)C(=O)N2[C@@H]1c1ccc(O)cc1` please
Found: Y

Lookup: Do the same for O=C1C2C=CC(C(O)c3cccc(O)c3)N(Nc3ccccc3F)C2C(=O)N1c1ccccc1 (stereo not given) please
Found: Y

Lookup: Do the same for `CCOC(=O)C[C@H]1[C@H](OC(=O)c2ccc(-c3ccccc3)cc2)[C@@H](NC(=O)CC(C)C)c2cc(OCCCO)ccc2N1C(=O)Cc1ccc(OC)cc1` please
Found: N

Lookup: Do the same for `CC(C)(C)OC(=O)CC[C@]1(C(N)=O)N=C(c2ccc(OCCCO)cc2)O[C@H]1c1ccccc1CN=[N+]=[N-]` please
Found: N

Lookup: Do the same for `CCCC[C@@H]1C[C@H]1[C@@H](NC(=O)Cc1ccccc1)c1ccc(Cl)cc1` please
Found: N
